- Experiment Summary: Pharmacokinetic assessment, plasma and brain
- Type: in vivo, male C57BL/6 mice
- Condition Description: male, C57BL/6, mouse, brain; SC 10 mg/kg; 0.083 hr; read-out: Mean brain Concentration
For each entry below, report its concentration at 0.083 hr value.
// note: answer is a bare numeric in ng/g

Given CCC(N)Cc1cc(OC)c(C(F)(F)F)cc1OC (racemic) [Compound 29] , state its recorded concentration at 0.083 hr.
2010

Given CCC(N)Cc1cc(OC)c(C)cc1OC (racemic) [Compound 32] , state its recorded concentration at 0.083 hr.
1630

---

For each entry below, report its EC50 value.
- Target Or System: 5-HT2A (Homo sapiens)
- Sequence (P28223 whole entry): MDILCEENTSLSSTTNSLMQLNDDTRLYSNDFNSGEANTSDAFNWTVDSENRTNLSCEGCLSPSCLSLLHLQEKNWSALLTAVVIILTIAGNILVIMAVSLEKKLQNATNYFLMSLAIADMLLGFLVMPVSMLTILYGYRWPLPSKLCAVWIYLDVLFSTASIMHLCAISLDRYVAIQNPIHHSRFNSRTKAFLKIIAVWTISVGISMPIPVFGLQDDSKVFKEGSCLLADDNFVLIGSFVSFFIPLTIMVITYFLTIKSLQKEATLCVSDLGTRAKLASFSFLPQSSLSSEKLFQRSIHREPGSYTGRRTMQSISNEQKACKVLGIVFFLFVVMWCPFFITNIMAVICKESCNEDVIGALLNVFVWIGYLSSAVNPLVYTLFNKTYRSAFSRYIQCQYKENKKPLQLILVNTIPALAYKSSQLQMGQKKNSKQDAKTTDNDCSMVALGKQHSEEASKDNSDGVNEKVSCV
- Experiment Summary: IP1 agonism (IP1 formation assay), Cerep, Eurofins
- Format: cell-based
- Parameters: purchased Cerep, Eurofins (contract assay)
- Condition Description: EC50 (5-HT2A) (M), Table 7; IP1 agonism, duplicate averages only
// note: answer is a bare numeric in M

Given CCC(N)Cc1cc(OC)c(C(F)(F)CC)cc1OC (centres unmarked) [Compound 53] , state its recorded EC50.
5.7e-08

Given CCC(N)Cc1cc(OC)c(CC(C)(F)F)cc1OC (centres unmarked) [Compound 58] , state its recorded EC50.
4.3e-06

Given CCC(N)Cc1cc(OC)c(C(C)(F)F)cc1OC (centres unmarked) [Compound 50] , state its recorded EC50.
2.5e-08

Given CCC(N)Cc1cc(OC)c(C(F)(F)F)cc1OC (racemic) [Compound 29] , state its recorded EC50.
6.3e-08

Given CCC(N)Cc1cc(OC)c(C)cc1OC (racemic) [Compound 32] , state its recorded EC50.
1.8e-06
